Source listed as patent US20230172204A1.

- Tested on: Phakopsora pachyrhizi (F129L)
- test_method_notes: Protective control of soybean rust on soybeans (PHAKPA P6)
- Type: in vivo
- experimental_context: protective P6, 4 ppm, soybean rust F129L
Assign labels as follows, please: criterion met for % PHAKPA (F129L) Disease level P6 at 4 ppm below 20%; criterion not met for % PHAKPA (F129L) Disease level P6 at 4 ppm equal to or exceeding 20%.

CNC(=O)/C(=N/OC)c1cccc(C)c1CO/N=C(\C)c1cccc(Br)c1 [Ex. 58]	criterion met

query: API: query returns whether the compound falls strictly under 20% in % PHAKPA (F129L) Disease level P6 at 4 ppm. Query: CO/N=C(/C(=O)OC)c1cccc(C)c1CO/N=C(\C)c1ccc(OC(F)(F)F)cc1Cl [compound 268]
result: criterion not met

---

- Test system: Phakopsora pachyrhizi (F129L)
- test_method_notes: Protective control of soybean rust on soybeans (PHAKPA P6)
- Type: in vivo
- experimental_context: protective P6, 4 ppm, soybean rust F129L
measured_attribute: % PHAKPA (F129L) Disease level P6 at 4 ppm (%)
Express it in %; write the number only.

See these solved cases before continuing.
CO/N=C(/C(=O)OC)c1cccc(C)c1CO/N=C(\C)c1cccc(F)c1	23
CNC(=O)/C(=N/OC)c1cccc(C)c1CO/N=C(\COC)c1ccccc1	11
CO/N=C(/C(=O)OC)c1cccc(C)c1CO/N=C(\C)c1cc(F)ccc1F	32

Kindly review the next molecule as well.
query: Please give measured % PHAKPA (F129L) Disease level P6 at 4 ppm of the following entry: CO/N=C(/C(=O)OC)c1cccc(C)c1CO/N=C(\C)c1c(F)cc(F)cc1OC(F)(F)F
result: 88

---

Known % PHAKPA (F129L) Disease level P2 at 16 ppm of a selection of molecules
- System: Phakopsora pachyrhizi (F129L)
- test_method_notes: Protective control of soybean rust on soybeans (PHAKPA P2)
- Format: in vivo
- experimental_context: protective P2, 16 ppm, soybean rust F129L
Express it in %; write the number only.

See these solved cases before continuing.
CO/C=C(/C(=O)OC)c1cccc(C)c1CO/N=C(\C)c1cc(F)c(F)cc1CC(F)(F)F [compound 405]	27
CNC(=O)/C(=N/OC)c1cccc(C)c1CO/N=C(\C)c1ccc(C)c(Cl)c1 [compound 109]	1
CCc1ccc(/C(C)=N/OCc2c(C)cccc2/C(=N\OC)C(=O)NC)cc1 [Ex. 165]	0
CNC(=O)/C(=N/OC)c1cccc(C)c1CO/N=C(\C)c1cc(C)cc(Cl)c1 [compound 106]	1
CNC(=O)/C(=N/OC)c1cccc(C)c1CO/N=C(/c1ccccc1)C(C)C [compound 389]	4

query: Please give measured % PHAKPA (F129L) Disease level P2 at 16 ppm of the following entry: CO/N=C(/C(=O)OC)c1cccc(C)c1CO/N=C(\C)c1c(F)ccc(C(F)(F)F)c1F [compound 156]
result: 0

query: Please give measured % PHAKPA (F129L) Disease level P2 at 16 ppm of the following entry: CO/N=C(/C(=O)OC)c1cccc(C)c1CO/N=C(\C)c1c(Cl)cccc1Cl [compound 171]
result: 100

---

Known % PHAKPA (F129L) Disease level P2 at 16 ppm of a selection of molecules
- Test system: Phakopsora pachyrhizi (F129L)
- test_method_notes: Protective control of soybean rust on soybeans (PHAKPA P2)
- Format: in vivo
- experimental_context: protective P2, 16 ppm, soybean rust F129L
Express it in %; write the number only.

See these solved cases before continuing.
CO/N=C(/C(=O)OC)c1cccc(C)c1CO/N=C(\C)c1cc(C)cc(Cl)c1 [compound 101]	37
CNC(=O)/C(=N/OC)c1cccc(C)c1CO/N=C(\C)c1ccc(OC(F)(F)F)cc1OC(F)(F)F [compound 349]	50
CCc1cccc(/C(=N\OC)C(=O)NC)c1CO/N=C(\C)c1cccc(C(F)(F)F)c1 [compound 62]	0

query: Report % PHAKPA (F129L) Disease level P2 at 16 ppm under test system Phakopsora pachyrhizi (F129L) for CO/N=C(/C(=O)OC)c1cccc(C2CC2)c1CO/N=C(\C)c1cccc(C(F)(F)F)c1 [Ex. 10] .
result: 2
